# target: Tet(X4) (Escherichia coli)
# Sequence (A0A3T0V9Y5 1-385): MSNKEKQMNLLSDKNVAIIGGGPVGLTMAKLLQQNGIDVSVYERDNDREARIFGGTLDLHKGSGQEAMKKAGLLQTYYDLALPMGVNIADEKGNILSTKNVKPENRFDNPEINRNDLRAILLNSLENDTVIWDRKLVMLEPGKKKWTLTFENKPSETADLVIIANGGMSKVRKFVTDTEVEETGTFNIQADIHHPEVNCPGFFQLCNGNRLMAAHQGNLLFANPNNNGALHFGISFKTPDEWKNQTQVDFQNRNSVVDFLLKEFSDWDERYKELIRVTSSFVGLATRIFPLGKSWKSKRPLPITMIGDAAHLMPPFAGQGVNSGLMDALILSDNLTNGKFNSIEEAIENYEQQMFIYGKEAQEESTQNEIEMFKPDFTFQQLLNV
pKd: −log10 of the molar value.

molecule	target	pKd
CC1=CC(=O)c2c(O)cccc2C1=O [plumbagin]	Tet(X4) (Escherichia coli)	2.80
